Provenance of the data: ChEMBL document CHEMBL1641580

In this section we review reported CC50 at 48 h values for a set of compounds.
Assay: Cytotoxicity against african green monkey Vero cells after 48 hrs by neutral red assay
Format: cell-based
Conditions: chlorocebus sabaeus, read-out: TC50

chemical structure | CC50 at 48 h
C[n+]1cccc(N(CCCCCC2CCCCC2)c2ccccc2C#N)c1.[I-] | > 10 µg/mL
Cc1cccc(N(CCCCCC2CCCCC2)c2ccc[n+](C)c2)c1.[I-] | > 10 µg/mL
Clc1ccc(Nc2cc3ccccc3[n+](CCCCCC3CCCCC3)c2)cc1.[I-] | > 10 µg/mL
C[n+]1cccc(N(CCCCCC2CCCCC2)c2ccc(Cl)cc2)c1.[I-] | > 10 µg/mL
C[n+]1c2ccc(Cl)cc2cc2c1c1ccccc1n2CCCCCC1CCCCC1.[I-] | 1.4 µg/mL
Cc1ccc(N(CCCCCC2CCCCC2)c2ccc[n+](C)c2)cc1.[I-] | > 10 µg/mL
C[n+]1cc(N(CCCCCC2CCCCC2)c2ccc(Cl)cc2)cc2ccccc21.[I-] | 10 µg/mL
C[n+]1cccc(N(CCCCCC2CCCCC2)c2ccc(F)cc2)c1.[I-] | > 10 µg/mL
COc1cccc(N(CCCCCC2CCCCC2)c2ccc[n+](C)c2)c1.[I-] | > 10 µg/mL
C[n+]1c2ccccc2cc2[nH]c3ccc(Cl)cc3c21.[I-] | 1.5 µg/mL
